Tested System: MERTK (UniProt Q12866)
Sequence (Q12866 whole entry, looked up): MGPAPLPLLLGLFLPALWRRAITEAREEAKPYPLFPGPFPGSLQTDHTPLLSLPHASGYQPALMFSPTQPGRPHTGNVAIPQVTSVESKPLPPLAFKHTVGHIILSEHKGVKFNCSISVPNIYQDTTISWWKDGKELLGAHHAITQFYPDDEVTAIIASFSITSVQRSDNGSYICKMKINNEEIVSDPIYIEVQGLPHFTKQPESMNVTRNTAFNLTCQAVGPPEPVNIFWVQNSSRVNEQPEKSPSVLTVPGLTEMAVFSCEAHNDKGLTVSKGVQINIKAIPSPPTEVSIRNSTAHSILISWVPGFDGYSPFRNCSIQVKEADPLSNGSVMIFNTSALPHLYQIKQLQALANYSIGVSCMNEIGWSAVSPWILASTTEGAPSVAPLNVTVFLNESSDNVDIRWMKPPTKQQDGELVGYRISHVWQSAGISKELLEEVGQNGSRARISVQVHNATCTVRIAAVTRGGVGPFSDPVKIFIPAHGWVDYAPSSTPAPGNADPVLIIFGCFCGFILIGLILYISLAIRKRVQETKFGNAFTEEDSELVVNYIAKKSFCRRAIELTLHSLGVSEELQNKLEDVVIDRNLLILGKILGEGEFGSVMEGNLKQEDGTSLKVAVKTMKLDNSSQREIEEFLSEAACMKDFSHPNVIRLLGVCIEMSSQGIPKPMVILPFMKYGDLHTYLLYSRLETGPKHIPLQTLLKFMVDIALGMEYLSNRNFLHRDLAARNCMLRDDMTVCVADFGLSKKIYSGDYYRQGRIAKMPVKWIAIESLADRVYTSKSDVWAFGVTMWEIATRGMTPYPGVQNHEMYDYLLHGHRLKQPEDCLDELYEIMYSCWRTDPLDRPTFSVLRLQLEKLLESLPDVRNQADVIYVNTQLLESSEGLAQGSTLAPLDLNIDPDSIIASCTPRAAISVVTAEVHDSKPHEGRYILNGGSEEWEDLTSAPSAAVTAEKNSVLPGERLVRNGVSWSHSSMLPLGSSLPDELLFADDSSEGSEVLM
Protocol: phosphorylation enrichment, bacterial display (enrichment ratio); higher = better substrate or ligand; peptides without Tyr show the background;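 further: 11-residue human phosphosite peptides and single-mutation variants displayed on the E. coli surface, counted by deep sequencing, each peptide's frequency after selection divided by its frequency in the unselected input library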;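 further: frequency after pTyr selection over input frequency; kinase dosed for 20-30% of maximal phosphorylation in three min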
Overview of reported phosphorylation enrichment across a group of sequences:
A bare number is all that is needed in reply.

// worked examples, phosphorylation enrichment included
>  <Construct Sequence>
EQYELHCEMGS [CBL_Y371_Y371H]

>  <phosphorylation enrichment>
0.476

$$$$
>  <Construct Sequence>
FMCKVYSDPQP [FGFR1_Y280]

>  <phosphorylation enrichment>
0.425

$$$$
>  <Construct Sequence>
RKGGSYSQAAS [HLA-A_Y344_T345S]

>  <phosphorylation enrichment>
0.656

$$$$
>  <Construct Sequence>
GIMEEYQLPYY [BMPR1A_Y453_V450M]

>  <phosphorylation enrichment>
0.398

$$$$

Attention now turns to another entry.
phosphorylation enrichment for AYGNLYGSRKQ [YIPF7_Y59] ?
0.502
